Taken from patent US20180298070A1.

Molecular target: T1, human GIPR (human), P48546
T1 chain: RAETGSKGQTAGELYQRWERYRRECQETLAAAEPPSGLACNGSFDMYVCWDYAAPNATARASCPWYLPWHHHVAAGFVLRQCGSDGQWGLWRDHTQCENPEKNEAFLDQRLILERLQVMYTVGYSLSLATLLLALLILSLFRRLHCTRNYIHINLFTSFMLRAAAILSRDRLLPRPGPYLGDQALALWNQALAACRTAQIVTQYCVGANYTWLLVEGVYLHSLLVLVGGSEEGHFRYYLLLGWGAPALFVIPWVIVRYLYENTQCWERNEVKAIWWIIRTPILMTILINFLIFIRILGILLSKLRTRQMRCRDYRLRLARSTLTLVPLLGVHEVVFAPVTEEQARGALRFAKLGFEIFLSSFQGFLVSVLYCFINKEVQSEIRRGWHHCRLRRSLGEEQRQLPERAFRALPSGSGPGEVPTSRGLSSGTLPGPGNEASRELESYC
Starred links: 1 amine or outer side, 2 acyl side, 3 side chain; linkers in the order of their positions; H or OH if unused. Non-standard residues stand in square brackets, D forms with d. Groups on a side chain read outwards from the residue. Primed or numbered codes have the meaning given here. No end group written: not given here. *: point of attachment. C20 diacid = O=C(O)CCCCCCCCCCCCCCCCCCC(=O)*; γGlu = O=C(O)[C@H](CCC(=O)[*:2])N[*:1]; NMeY = CN[C@@H](Cc1ccc(O)cc1)C(=O)O; Stearoyl = CCCCCCCCCCCCCCCCCC(=O)*; αMeF = C[C@](N)(Cc1ccccc1)C(=O)O; Lauroyl = CCCCCCCCCCCC(=O)*; dIva = CC[C@@](C)(N)C(=O)O; Iva = CC[C@](C)(N)C(=O)O; PEG2′ = not defined here; PEG3′ = not defined here; Aib = CC(C)(N)C(=O)O
Measured log10 of Agonist activity (EC50, M), listed per entry for reference.
Measured Quantity: log10 of Agonist activity (EC50, M) (log10 of the value in M)

INSERT INTO results (binder, quantitative_readout) VALUES
  ('Me-Y[Aib]EGTFISDYSIALDRIAQ[Aib]SFVNWLLAQRPSSGAPPPSR (not fully specified (residue 1, C-terminus); ends and bridges not checked) [Compound 136]', -11.66),
  ('Y[Aib]EGTFISDYSIAK([PEG(2)-C20 diacid])DRIAQQNFVNW[Iva]LAQRPSSGAPPPS (ends and bridges not checked) [Compound 383]', -10.37),
  ('Y[Aib]EGTFISDYSIALDRK([PEG(2)-C20 diacid])AQQNFVNW[Iva]LAQR (ends and bridges not checked) [Compound 391]', -9.96),
  ('Y[Aib]EGTFISDYSK([PEG2′-Lauroyl])ALDRIHQQDFVNWLLAQRPSSGAPPPSR (ends and bridges not checked) [Compound 180]', -11.72),
  ('[NMeY][Aib]EGTFISDYSI[dIva]LDRIHQQDFVNWLLAQRPSSGAPPPSR (not fully specified (N-terminus, C-terminus); ends and bridges not checked) [Compound 144]', -11.66),
  ('Y[Aib]EGTFISDYSK([PEG(2)-Lauroyl])ALDRIHQQSFVNW[Iva]LAQRPSSGAPPPS (not fully specified (C-terminus); ends and bridges not checked) [Compound 222]', -11.43),
  ('Y[Aib]EGTFISDYSK([PEG(2)-Lauroyl])ALDRIAQQDFVNWLLAQRPSSGAPPPS (ends and bridges not checked) [Compound 192]', -11.19),
  ('[NMeY][Aib]EGTFISDYSI[dIva]LDR[dIva]AQ[dIva]NFVNWLLAQRPSSGAPPPSR (not fully specified (N-terminus, C-terminus); ends and bridges not checked) [Compound 103]', -11.89),
  ('Y[Aib]EGTFISDYSK([PEG2′-Lauroyl])ALDR[Aib]AQQD[αMeF]VNWLLAQRPSSGAPPPS (not fully specified (C-terminus); ends and bridges not checked) [Compound 213]', -11.51),
  ('Me-Y[Aib]EGTFISDYSIALDRIAQQNFVNW[Iva]LAQRPSSGAPPPSR (not fully specified (residue 1, C-terminus); ends and bridges not checked) [Compound 133]', -11.77),
  ('Y[Aib]EGTVVSLYSI[Aib]LDKQAQ[Aib]EFVKWLLKGK(Pal) (ends and bridges not checked) [Compound 163]', -8.18),
  ('Y[Aib]EGTFISDYSIALDRK([PEG(2)-dodec])HQQDFVNWLLAQRPSSGAPPPS (not fully specified (C-terminus); ends and bridges not checked) [Compound 232]', -11.49),
  ('[NMeY][Aib]EGTFISDYSI[dIva]LDRIAQ[Aib]N[αMeF]VNWLLAQRPSSGAPPPSR (ends and bridges not checked) [Compound 99]', -11.54),
  ('Me-Y[Aib]EGTFISDYSIALDRIAQQSFVNWLLAQRPSSGAPPPS (not fully specified (residue 1, C-terminus); ends and bridges not checked) [Compound 129]', -11.77),
  ('Y[Aib]EGTFISDYSK([PEG3′-PEG3′-γGlu-C20 diacid])ALDR[Aib]HQ[Aib]NFVNW[Iva]LAQRPSSGAPPPS (not fully specified (C-terminus); ends and bridges not checked) [Compound 242]', -10.17),
  ('Y[Aib]EGTFISDYSK([PEG(2)-Stearoyl])ALDRIHQQDFVNWLLAQRPSSGAPPPS (ends and bridges not checked) [Compound 176]', -10.72);
